System tested: human PPAR γ (Homo sapiens, UniProt P37231)
Construct: 174-475 (PPARγ)
Sequence (P37231 174-475 isoform P37231-2): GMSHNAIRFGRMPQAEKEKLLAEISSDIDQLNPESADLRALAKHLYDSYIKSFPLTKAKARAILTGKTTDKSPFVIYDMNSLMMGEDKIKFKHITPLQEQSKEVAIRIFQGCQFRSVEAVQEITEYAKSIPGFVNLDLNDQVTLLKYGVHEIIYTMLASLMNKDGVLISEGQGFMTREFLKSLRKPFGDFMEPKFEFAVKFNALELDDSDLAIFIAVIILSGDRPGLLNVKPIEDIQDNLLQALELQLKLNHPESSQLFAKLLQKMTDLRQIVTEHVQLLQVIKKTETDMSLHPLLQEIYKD
Experiment notes: Transcriptional activity, GAL4-PPAR LBD chimera / PLAP reporter in CV-1 cells
Condition parameters: GAL4-PPARγ LBD, PLAP activity 24 hours after addition
I'd appreciate it if you marked entries true when EC50 is lower than 1000 nM and false when it is not.

Please review the entries below; each comes with its answer.
>  <Compound>
COc1ccc(-c2cccc(CC(=O)O)c2)cc1CCOc1ccc(Cl)cc1Cl

>  <Classification>
false

$$$$
>  <Compound>
COc1ccc(-c2cccc(CC(=O)O)c2)cc1OCC#Cc1cccc(C(F)(F)F)c1

>  <Classification>
false

$$$$
>  <Compound>
COc1ccc(-c2cccc(CC(=O)O)c2)cc1CNC(=O)c1ccc(C(F)(F)F)cc1F

>  <Classification>
true

$$$$

Just wondering, is EC50 of `COc1ccc(-c2cccc(CC(=O)O)c2)cc1CCOC(=O)Nc1ccc(C(F)(F)F)cc1` below 1000 nM? true

And COc1ccc(-c2cccc(CC(=O)O)c2)cc1OCC(O)COc1ccc(C(C)(C)C)cc1 (stereo not shown) ? true

And `CCCOc1ccc(-c2cc(C(=O)O)ccc2Cl)cc1CNC(=O)c1ccc(C(F)(F)F)cc1F` ? true

And `COc1ccc(-c2cccc(CC(=O)O)c2)cc1C#CCOc1ccc(C(F)(F)F)cc1` ? false
